# system.under.test: T1, 4H2466-AA
# T1 chain: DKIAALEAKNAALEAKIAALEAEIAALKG
# assay.info: two-hybrid library CCmax;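 further: natural log of median RNA to DNA barcode read ratio; higher means stronger binding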
# condition.details: mean of both orientations
observation.type: interaction score

1. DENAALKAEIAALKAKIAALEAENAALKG [4H1636-AA]
-2.07
2. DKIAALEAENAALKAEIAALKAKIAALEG [4H2253-AA]
-1.68
3. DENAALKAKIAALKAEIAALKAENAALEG [4H1867-AA]
-1.6
4. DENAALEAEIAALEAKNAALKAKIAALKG [4H1086-AA]
-1.65

Just for reference, paper PMC10397247 is where these values come from.
